Test: Phase I study CXR1002-001: plasma pharmacokinetics (LC-MS/MS)
Format: in vivo, human
Conditions: human, plasma, oral, 50 mg, Patient 003 Dose 50 mg; 0.25 hr
From the text: PK samples, PD (fasting) samples, blood glucose, and blood triglyceride samples, were taken over a 6-week period. Dose limiting toxicity (DLT) will be based on the toxicity assessments over the first 3-week period of the repeat dosing schedule. […]
property.label: concentration at 0.25 h

[[record]]
test_smiles = "O=C(O)C(F)(F)C(F)(F)C(F)(F)C(F)(F)C(F)(F)C(F)(F)C(F)(F)F"
endpoint_result = "1080 nM"


###

test: Phase I study CXR1002-001: plasma pharmacokinetics (LC-MS/MS); assay type: in vivo, human; conditions: human, plasma, oral, 600 mg, Patient 024, 600 mg, person, plasma, 172 hr; read-out: Concentration
property.label: concentration at 172 h (µM)

[[record]]
test_smiles = "O=C(O)C(F)(F)C(F)(F)C(F)(F)C(F)(F)C(F)(F)C(F)(F)C(F)(F)F"
property_label = "concentration at 172 h"
endpoint_result = 439


###

test: Phase I study CXR1002-001: plasma pharmacokinetics (LC-MS/MS); type: in vivo, human; conditions: human, plasma, po, 1200 mg, Patient 036, 1200 mg weekly oral dose, Time 2 hr; read-out: Concentration (plasma level)
property.label: concentration at 2 hr (µM)

[[record]]
test_smiles = "O=C(O)C(F)(F)C(F)(F)C(F)(F)C(F)(F)C(F)(F)C(F)(F)C(F)(F)F"
property_label = "concentration at 2 hr"
unit = "µM"
endpoint_result = 443


###

assay: Phase I study CXR1002-001: plasma pharmacokinetics (LC-MS/MS); assay type: in vivo, human; settings: human, plasma, oral, 450 mg, Patient 016 Dose 450 mg; 338 hr; read-out: Concentration
property.label: concentration at 338 h (µM)

[[record]]
test_smiles = "O=C(O)C(F)(F)C(F)(F)C(F)(F)C(F)(F)C(F)(F)C(F)(F)C(F)(F)F"
endpoint_result = 418


###

assay: Phase I study CXR1002-001: plasma pharmacokinetics (LC-MS/MS); assay type: in vivo, human; conditions: human, plasma, oral, 950 mg, Patient 029, 950 mg, person, plasma, 504 hr (Day 22); read-out: Concentration
property.label: concentration at 504 h

[[record]]
test_smiles = "O=C(O)C(F)(F)C(F)(F)C(F)(F)C(F)(F)C(F)(F)C(F)(F)C(F)(F)F"
endpoint_result = "400 µM"


###

test: Phase I study CXR1002-001: plasma pharmacokinetics (LC-MS/MS); format: in vivo, human; settings: human, plasma, po, 1200 mg, Patient 038, 1200 mg weekly oral dose, Time 192 hr (Day 9); read-out: Concentration (plasma level)
property.label: concentration at 192 h (µM)

[[record]]
test_smiles = "O=C(O)C(F)(F)C(F)(F)C(F)(F)C(F)(F)C(F)(F)C(F)(F)C(F)(F)F"
endpoint_result = 493


###

test: Phase I study CXR1002-001: plasma pharmacokinetics (LC-MS/MS); type: in vivo, human; settings: female, human, plasma, oral, Female, plasma, 170 hr; read-out: Concentration
property.label: concentration at 170 h

[[record]]
test_smiles = "O=C(O)C(F)(F)C(F)(F)C(F)(F)C(F)(F)C(F)(F)C(F)(F)C(F)(F)F"
endpoint_result = "276 µM"


###

experiment: Phase I study CXR1002-001: plasma pharmacokinetics (LC-MS/MS); assay type: in vivo, human; settings: human, plasma, po, 1200 mg, Patient 037, 1200 mg weekly oral dose, Time 675 hr; read-out: Concentration (plasma level)
property.label: concentration at 675 h (µM)

[[record]]
test_smiles = "O=C(O)C(F)(F)C(F)(F)C(F)(F)C(F)(F)C(F)(F)C(F)(F)C(F)(F)F"
property_label = "concentration at 675 h"
endpoint_result = 1460


###

Assay: Phase I study CXR1002-001: plasma pharmacokinetics (LC-MS/MS)
Assay type: in vivo, human
Conditions: human, plasma, oral, 600 mg, Patient 022, 600 mg, person, plasma, 338 hr; read-out: Concentration
Source text: PK samples, PD (fasting) samples, blood glucose, and blood triglyceride samples, were taken over a 6-week period. Dose limiting toxicity (DLT) will be based on the toxicity assessments over the first 3-week period of the repeat dosing schedule. […]
property.label: concentration at 338 h

[[record]]
test_smiles = "O=C(O)C(F)(F)C(F)(F)C(F)(F)C(F)(F)C(F)(F)C(F)(F)C(F)(F)F"
endpoint_result = "433 µM"


###

Experiment: Phase I study CXR1002-001: plasma pharmacokinetics (LC-MS/MS)
Type: in vivo, human
Details: human, plasma, oral, 950 mg, Patient 030, 950 mg, person, plasma, 3 hr; read-out: Concentration
Text: PK samples, PD (fasting) samples, blood glucose, and blood triglyceride samples, were taken over a 6-week period. Dose limiting toxicity (DLT) will be based on the toxicity assessments over the first 3-week period of the repeat dosing schedule. […]
property.label: concentration at 3 h (µM)

[[record]]
compound = "O=C(O)C(F)(F)C(F)(F)C(F)(F)C(F)(F)C(F)(F)C(F)(F)C(F)(F)F [CXR1002]"
property_label = "concentration at 3 h"
endpoint_result = 219


###

test: Phase I study CXR1002-001: plasma pharmacokinetics (LC-MS/MS); type: in vivo, human; details: human, plasma, oral, 950 mg, Patient 029, 950 mg, person, plasma, 340 hr; read-out: Concentration
property.label: concentration at 340 h (µM)

[[record]]
test_smiles = "O=C(O)C(F)(F)C(F)(F)C(F)(F)C(F)(F)C(F)(F)C(F)(F)C(F)(F)F"
endpoint_result = 674


###

test: Phase I study CXR1002-001: plasma pharmacokinetics (LC-MS/MS); assay type: in vivo, human; details: human, plasma, oral, 750 mg, Patient 027, 750 mg, person, plasma, 696 hr (Day 30); read-out: Concentration
property.label: concentration at 696 h (µM)

[[record]]
test_smiles = "O=C(O)C(F)(F)C(F)(F)C(F)(F)C(F)(F)C(F)(F)C(F)(F)C(F)(F)F"
endpoint_result = 803


###

experiment: Phase I study CXR1002-001: plasma pharmacokinetics (LC-MS/MS); type: in vivo, human; settings: human, plasma, oral, 200 mg, Patient 009 Dose 200 mg; 24 hr (Day 2); read-out: Concentration
property.label: concentration at 24 h (µM)

[[record]]
test_smiles = "O=C(O)C(F)(F)C(F)(F)C(F)(F)C(F)(F)C(F)(F)C(F)(F)C(F)(F)F"
unit = "µM"
endpoint_result = 64.6


###

assay: Phase I study CXR1002-001: plasma pharmacokinetics (LC-MS/MS); type: in vivo, human; details: human, plasma, oral, 750 mg, Patient 028, 750 mg, person, plasma, 168 hr (Day 8); read-out: Concentration
property.label: concentration at 168 h (µM)

[[record]]
compound = "O=C(O)C(F)(F)C(F)(F)C(F)(F)C(F)(F)C(F)(F)C(F)(F)C(F)(F)F [CXR1002]"
endpoint_result = 161


###

Assay: Phase I study CXR1002-001: plasma pharmacokinetics (LC-MS/MS)
Assay type: in vivo, human
Details: human, plasma, po, 1000 mg, Patient 042, 1000 mg weekly oral dose, Time 506 hr; read-out: Concentration (plasma level)
Description: PK samples, PD (fasting) samples, blood glucose, and blood triglyceride samples, were taken over a 6-week period. Dose limiting toxicity (DLT) will be based on the toxicity assessments over the first 3-week period of the repeat dosing schedule. […]
property.label: concentration at 506 hr (µM)

[[record]]
compound = "O=C(O)C(F)(F)C(F)(F)C(F)(F)C(F)(F)C(F)(F)C(F)(F)C(F)(F)F [CXR1002]"
endpoint_result = 872


###

experiment: Phase I study CXR1002-001: plasma pharmacokinetics (LC-MS/MS); assay type: in vivo, human; details: human, plasma, oral, 450 mg, Patient 015 Dose 450 mg; 504 hr (Day 22); read-out: Concentration
property.label: concentration at 504 h (µM)

[[record]]
test_smiles = "O=C(O)C(F)(F)C(F)(F)C(F)(F)C(F)(F)C(F)(F)C(F)(F)C(F)(F)F"
endpoint_result = 387


###

tested on: A375; test: SRB cytotoxicity assay 48 hr; assay type: cell-based, human; conditions: Homo sapiens, A-375, 48 h, read-out: IC50 Values After 48 Hrs Exposure
pIC50: −log10 of the molar value.
property.label: pIC50

[[record]]
compound = "O=C(O)C(F)(F)C(F)(F)C(F)(F)C(F)(F)C(F)(F)C(F)(F)C(F)(F)F [APFO, Ammonium Perfluorooctanoate]"
endpoint_result = 3.64


###

test: Phase I study CXR1002-001: plasma pharmacokinetics (LC-MS/MS); format: in vivo, human; conditions: human, plasma, oral, 200 mg, Patient 009 Dose 200 mg; 360 hr (Day 16); read-out: Concentration
property.label: concentration at 360 h (µM)

[[record]]
test_smiles = "O=C(O)C(F)(F)C(F)(F)C(F)(F)C(F)(F)C(F)(F)C(F)(F)C(F)(F)F"
endpoint_result = 218

